Biological target: T1, Activin A (human, UniProt P08476 311-426)
T1 construct: Homodimer of two βA subunits; bought from R&D Systems (#338-AC); also called inhibin-βA dimer; human Activin A
T1 sequence: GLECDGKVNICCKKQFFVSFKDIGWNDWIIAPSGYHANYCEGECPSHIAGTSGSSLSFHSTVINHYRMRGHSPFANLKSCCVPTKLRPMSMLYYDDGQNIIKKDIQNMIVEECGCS
Experiment: SPR, captured mAb, 37C
measure: Activin A-20 nM (RU)
Give your result in RU as a bare value.

>  <binder>
H4H10426P (antibody, human IgG4, V domains shown) VH: EVQLVESGGNLVQSGRSLRLSCTASGFAFDDFAMHWVRQVPGKGLEWVSGISWNSDTIGYADSVKGRFTISRDNAQNSLFLQMDSLRAEDTALYYCVKDMVRGLIGYYYYGMDVWGQGTTVTVSS VL: EIVLTQSPAILSLSPGERAILSCRASQSIYTYLSWYQQTPGRAPRLLIYETSSRATGIPARFIGSGSGTDFTLTISSLEPEDFAFYYCQHRSDWPPTFGQGTKLEIK

>  <observed value>
21

$$$$
>  <binder>
H4H10430P (antibody, human IgG4, V domains shown, also called H4H1430P; H4H10430P2) VH: EVQLVESGGGLVQPGRSLRLSCKASGFAFDDFAMHWVRQAPGKGLEWVSGIVWNSGDIGYADSVKGRFTISRDNAKNSLYLQLNSLRTEDTALYFCVKDMVRGLMGFNYYGMDVWGQGTTVTVSS VL: EIVLTQSPATLSLSPGERATLSCRASQTISTYLVWYRQRPGQAPSLLIYDASNRATDIPARFSGSGSGTDFTLTISSLEPEDFAVYYCQQRSNWPITFGQGTRLEIK

>  <observed value>
25

$$$$
>  <binder>
H4H10424P (antibody, human IgG4, V domains shown) VH: QVQLVESGGGVVQPGRSLRLSCAASGFTFSSYGMHWVRQAPGKGLEWVAVIWYDGSNKYNADSVKGRFTISRDNSKNTVYLQMNSLRAEDTAVYYCARARNYDILTGYYNLGMDVWGQGTTVTVSS VL: DIQMTQSPSSLSASVGDRVTITCRASQGIRNDLGWYQQKPGKAPKRLIYAASSLQSGVPSRFSGSGSGTEFTLTISSLQPEDFATYYCLQHNSYPYTFGQGTKLEIK

>  <observed value>
58

$$$$

(Q) Could you tell me which Activin A-20 nM (RU) is on file for H4H10429P (antibody, human IgG4, V domains shown) VH: QVQLVESGGGVVQPGRSLRLSCVASGFTVSSYGIHWVRQAPGKGLEWVSVIWYDGRNKDYADSVKGRFTISRDNSKNTVYLEMKGLRAEDTALYYCARDKTGDFDSWGQGTLVTVSS VL: DIQMTQSPSSLSASVGDRVTITCRASQNINSFLSWYQQKPGKAPKFLIYDASSIQSGAPSRFSGSGSGTDFTLTISSLQPEDFATYYCQQSYSSPFTFGQGTKLEIK ?
(A) 31.4
